- TARGET: T1, human CD73 (huCD73) protein, antigen of the Biacore assay (human, UniProt P21589 27-547, limits assumed)
- T1 construct: also called human CD73 antigen
- T1 sequence (looked up): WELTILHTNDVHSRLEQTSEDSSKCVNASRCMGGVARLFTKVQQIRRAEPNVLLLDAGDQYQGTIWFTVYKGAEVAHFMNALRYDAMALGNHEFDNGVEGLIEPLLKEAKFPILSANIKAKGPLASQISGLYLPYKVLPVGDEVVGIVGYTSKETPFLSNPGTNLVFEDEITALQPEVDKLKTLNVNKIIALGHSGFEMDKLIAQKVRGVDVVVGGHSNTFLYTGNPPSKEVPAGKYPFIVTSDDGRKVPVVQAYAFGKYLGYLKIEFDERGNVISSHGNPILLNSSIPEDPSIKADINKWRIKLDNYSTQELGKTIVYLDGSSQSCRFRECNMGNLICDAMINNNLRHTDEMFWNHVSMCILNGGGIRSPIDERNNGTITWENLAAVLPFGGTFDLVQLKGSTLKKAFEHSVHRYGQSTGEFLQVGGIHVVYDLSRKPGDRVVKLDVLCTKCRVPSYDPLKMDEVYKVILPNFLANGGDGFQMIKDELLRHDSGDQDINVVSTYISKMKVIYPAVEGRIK
- METHOD DESCRIPTION: SPR Biacore T200; antibody captured on Protein A chip, CD73 in flow; 1:1 Langmuir
OUTCOME MEASURE: pKd
Interpret pKd as the negative base-10 log of the concentration measured in mol/L.

stdin: Consider the binder Hab108.52 (antibody, V domains shown, VL5 + VH2; full-length antibody) VH: EVTLKESGPVLVKPTETLTLTCTVSGFSLSSYGIQWIRQPPGKLLEWLAVIWSGGSADYNAAFISRLTISKDTSKSQVVLTMTNMDPVDTATYYCAGQYGSVWGQGTLVTVSS VL: DIQMTQSPSSLSASVGDRVTITCRASQDIGDRLNWLQQKPGKAIKRLIYATSSLDSGVPKRFSGSGSGTEYTLTISSLQPEDFATYYCLQYAGSWTFGGGTKVEIK and give its measured pKd.
stdout: 9.03

stdin: Consider the binder Hab127.13 (antibody, V domains shown, VL1 + VH3; recombined with human heavy and light constant regions) VH: EVQLVQSGAEVKKPGASVKVSCKASGYTFTAYFMNWVMQAPGQGLEWIGRIYHNNGDTFYSQKFKGRATLTVDKSTSTVYMELSSLRSEDTAVYYCATSYVGDWGQGTTVTVSS VL: DIQMTQSPSSLSASVGDRVTITCRASQDIGDSLNWYQQKPGKAPKRLIYATSSLDSGVPSRFSGSGSGTEFTLTISSLQPEDFATYYCLQYASFPWTFGGGTKVEIK and give its measured pKd.
stdout: 9.10
